Test system: Escherichia coli TOP10;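 further: peptides expressed intracellularly from a pBAD plasmid library in pooled LB shake-flask culture, induced with 0.3% L-arabinose, DNA abundance read by NGS, three biological replicates, DESeq2 with apeglm shrinkage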
Test: shrunken log2 fold change of peptide-encoding DNA abundance (4.5 h post-induction vs induction); higher = less antimicrobial activity (less host growth inhibition)
Settings: time post-induction: 4.5 h; library: site-saturation at positions 5, 18, 19, 20
VALUE TYPE: shrunken log2 fold change

Example entries begin here.
INPUT: Under Escherichia coli TOP10: shrunken log2 fold change value of `RRIRDRPPRLPRPRPRPDVVPRP` ?
OUTPUT: -0.0108

INPUT: Field: shrunken log2 fold change (Escherichia coli TOP10). Entry: `RRIRSRPPRLPRPRPRPQLLPRP`
OUTPUT: -0.182

INPUT: What value of shrunken log2 fold change on Escherichia coli TOP10 does `RRIRDRPPRLPRPRPRPLDCPRP` have?
OUTPUT: 0.118

INPUT: Kindly state the measured shrunken log2 fold change obtained for `RRIRCRPPRLPRPRPRPHEPPRP` with Escherichia coli TOP10.
OUTPUT: -0.00114

INPUT: Query for Escherichia coli TOP10: what shrunken log2 fold change does the record show for `RRIRPRPPRLPRPRPRPYYQPRP` ?
OUTPUT: -0.496

Continuing:
INPUT: Hello, I am looking for reported shrunken log2 fold change with Escherichia coli TOP10 for `RRIRRRPPRLPRPRPRPHVRPRP` . Could you help?
OUTPUT: 0.0936

INPUT: Lookup: shrunken log2 fold change / Escherichia coli TOP10 / `RRIRIRPPRLPRPRPRPVPYPRP`
OUTPUT: -0.556
